Exercise: for every item that follows, state its recorded Ratio IC50.
# Species: Homo sapiens
# Test Protocol: Selectivity ratio of IC50 for human recombinant iNOS to IC50 for human recombinant eNOS
Lab note: write the figure by itself, no unit.

Give its Ratio IC50 value. Item: CNCC[C@@H](Oc1cc(C(F)(F)F)ccc1C#N)c1ccccc1.Cl
1400

Give its Ratio IC50 value. Item: N#Cc1cc(Cl)ccc1O[C@H](CCN)c1ccccc1.O=C(O)/C=C/C(=O)O
100

Give its Ratio IC50 value. Item: CCC(CCNC)Oc1cc(Cl)ccc1C#N.Cl (racemic)
170

Give its Ratio IC50 value. Item: Cc1ccnc(NCc2ccccc2)c1
12
